assay: Antiproliferative activity against human androgen-independent PC3MM2 cells after 72 hrs by MTS/PMS assay; assay type: functional, cell-based; settings: PC3MM2, 72 h
// values below are reported pIC50
Convention used: pIC50 is expressed as -log10 of the molar concentration.

COc1cccc(-c2cc(C(=O)Nc3cc4ccc(OC5CNC[C@@H](O)[C@H]5O)c(C)c4oc3=O)ccc2OC)c1 (stereo partly drawn) :: 5.20
CC(C)=CCc1cc(C(=O)Nc2cc3ccc(OC4CCN(C)CC4)c(C)c3oc2=O)ccc1O :: 5.86
COc1cccc(-c2cc(C(=O)Nc3cc4ccc(OC5C=CCNC5)c(OC)c4oc3=O)ccc2OC)c1 (stereo not drawn) :: 5.31

GET /values?readout=pIC50&item= CNCCOc1c(OC)cc2cc(NC(=O)c3ccc(OC)c(-c4cccc(OC)c4)c3)c(=O)oc2c1C 4.93

Consider the compound COc1cccc(-c2cc(C(=O)Nc3cc4ccc(OC5CCCN(C)C5)c(OC)c4oc3=O)ccc2OC)c1 (stereo not drawn) and give its measured pIC50. 5.67

What does the record list as pIC50 for COc1cccc(-c2cc(C(=O)Nc3cc4cc(OC)c(O)c(C)c4oc3=O)ccc2OC)c1 ? 4.95

====

experiment: Antiproliferative activity against human JMAR cells after 72 hrs by MTS/PMS assay; assay type: functional, cell-based
Consider the cut-off 7 µM. If the recorded IC50 is strictly smaller, the label is YES; if not, the label is NO.

Known results for compounds:
COc1cccc(-c2cc(C(=O)Nc3cc4ccc(O[C@H]5OCCC[C@H]5O)c(C)c4oc3=O)ccc2OC)c1 :: YES
COc1cccc(-c2cc(C(=O)Nc3cc4ccc(O[C@@H]5OCCC[C@@H](O)[C@H]5O)c(C)c4oc3=O)ccc2OC)c1 :: NO
COc1cccc(-c2cc(C(=O)Nc3cc4cc(OC)c(OC5C=CCN(C(C)=O)C5)c(C)c4oc3=O)ccc2OC)c1 (stereo not given) :: NO
COc1cccc(-c2cc(C(=O)Nc3cc4ccc(OC5C=CCN(C)C5)c(C)c4oc3=O)ccc2OC)c1 (stereo not given) :: NO

Is IC50 of CNCCOc1ccc2cc(NC(=O)c3ccc(OC)c(-c4cccc(OC)c4)c3)c(=O)oc2c1C strictly below 7 µM? NO

Dear reviewer, please state whether COc1cccc(-c2cc(C(=O)Nc3cc4ccc(OC5C=CCNC5)c(OC)c4oc3=O)ccc2OC)c1 (stereo not given) has IC50 strictly beneath 7 µM. YES

Dear reviewer, please state whether COc1cccc(-c2cc(C(=O)Nc3cc4ccc(OC(C)=O)c(C)c4oc3=O)ccc2OC)c1 has IC50 strictly beneath 7 µM. NO

Check if IC50 falls below 7 µM for COc1cccc(-c2cc(C(=O)Nc3cc4cc(OC)c(O)c(C)c4oc3=O)ccc2OC)c1 . NO

Is IC50 of COc1cc2cc(NC(=O)c3cc4ccccc4[nH]3)c(=O)oc2c(C)c1OCCCN(C)C strictly below 7 µM? YES

Check if IC50 falls below 7 µM for COc1cccc(-c2cc(C(=O)Nc3cc4ccc(OC5CNC[C@@H](O)[C@H]5O)c(C)c4oc3=O)ccc2OC)c1 (stereo not given in full) . YES

====

experiment: Antiproliferative activity against human JMAR cells after 72 hrs by MTS/PMS assay; type: functional, cell-based
// reported IC50 for each item listed
Unit µM implied. Number only.

Use the examples below as a reference point.
COc1cccc(-c2cc(C(=O)Nc3cc4cc(OC)c(OC5CCNCC5)c(C)c4oc3=O)ccc2OC)c1 :: 10.9
COc1cccc(-c2cc(C(=O)Nc3cc4ccc(OC5CN(C)C[C@@H](O)[C@H]5O)c(OC)c4oc3=O)ccc2OC)c1 (stereo partly drawn) :: 6.7
COc1cccc(-c2cc(C(=O)Nc3cc4ccc(O[C@@H]5C[C@H](O)CO5)c(C)c4oc3=O)ccc2OC)c1 :: 6.19
COc1cccc(-c2cc(C(=O)Nc3cc4ccc(OC5C=CCC(C)(C)C5)c(C)c4oc3=O)ccc2OC)c1 (stereo not drawn) :: 6.7
COc1cccc(-c2cc(C(=O)Nc3cc4ccc(OC5CCN(C)CC5)c(OC)c4oc3=O)ccc2OC)c1 :: 13.1

Please report the recorded IC50 for COc1cccc(-c2cc(C(=O)Nc3cc4ccc(OCCN(C)C)c(C)c4oc3=O)ccc2OC)c1 . 18.4

Given the compound COc1cccc(-c2cc(C(=O)Nc3cc4ccc(O[C@@H]5OC[C@@H](O)[C@H]5O)c(OC)c4oc3=O)ccc2OC)c1 , what is its reported IC50? 2.71

If you can, please state the reported IC50 value of COc1cccc(-c2cc(C(=O)Nc3cc4ccc(O[C@@H]5OCCC[C@H]5O)c(C)c4oc3=O)ccc2OC)c1 . 16.1

====

pIC50 listing for selected compounds.
system: B16-F10; assay: Antiproliferative activity against mouse B16F10 cells after 72 hrs by MTS/PMS assay; assay type: functional, cell-based; conditions: B16-F10, 72 h
By convention, pIC50 is the negative base-10 log of a molar concentration.

COc1cccc(-c2cc(C(=O)Nc3cc4cc(OC)c(OC5C=CCN(C(C)=O)C5)c(C)c4oc3=O)ccc2OC)c1 (stereo unspecified) :: 4.67
COc1cccc(-c2cc(C(=O)Nc3cc4ccc(OC5C=CCN(C)C5)c(C)c4oc3=O)ccc2OC)c1 (stereo unspecified) :: 5.19
COc1cccc(-c2cc(C(=O)Nc3cc4cc(OC)c(OC5C=CCNC5)c(C)c4oc3=O)ccc2OC)c1 (stereo unspecified) :: 5.54

Would you kindly share the measured pIC50 for COc1cccc(-c2cc(C(=O)Nc3cc4cc(OC)c(OC5CCNCC5)c(C)c4oc3=O)ccc2OC)c1 ? 5.74

Look up pIC50 for this compound: COc1cccc(-c2cc(C(=O)Nc3cc4cc(OC)c(OC5CN(C)C[C@@H](O)[C@H]5O)c(C)c4oc3=O)ccc2OC)c1 (stereo partly specified) 5.55

Quick one: pIC50 of COc1cccc(-c2cc(C(=O)Nc3cc4ccc(O[C@H]5C[C@H](O)CO5)c(C)c4oc3=O)ccc2OC)c1 ? 4.90

# get_value(readout='pIC50', item= COc1cccc(-c2cc(C(=O)Nc3cc4cc(OC)c(OC5CCCN(C)C5)c(C)c4oc3=O)ccc2OC)c1 (stereo unspecified) ) 5.57

Entry CNCCOc1ccc2cc(NC(=O)c3ccc(OC)c(-c4cccc(OC)c4)c3)c(=O)oc2c1C : reported pIC50 = ? 4.43

I have this compound here, COc1cccc(-c2cc(C(=O)Nc3cc4ccc(OC5C=CCNC5)c(OC)c4oc3=O)ccc2OC)c1 (stereo unspecified) , and I need its recorded pIC50. 5.47

Recorded pIC50 of COc1cccc(-c2cc(C(=O)Nc3cc4ccc(OC5CNC[C@@H](O)[C@H]5O)c(C)c4oc3=O)ccc2OC)c1 (stereo partly specified) , please. 5.55

pIC50 lookup needed for COc1cccc(-c2cc(C(=O)Nc3cc4ccc(OC5CCCNC5)c(OC)c4oc3=O)ccc2OC)c1 (stereo unspecified) , thanks. 6.19

# lookup: pIC50 of COc1cccc(-c2cc(C(=O)Nc3cc4ccc(OC5CCCN(C)C5)c(C)c4oc3=O)ccc2OC)c1 (stereo unspecified) 5.59

====

system: SK-BR-3; experiment: Antiproliferative activity against human SKBR3 cells expressing HER2 after 72 hrs by MTS/PMS assay; assay type: functional, cell-based; conditions: SK-BR-3, 72 h
Threshold-based label: IC50 under 3000 nM gives condition met, IC50 not under 3000 nM gives condition not met.

As a guide, the following entries are already answered.
COc1cccc(-c2cc(C(=O)Nc3cc4ccc(OCCCN(C)C)c(C)c4oc3=O)ccc2OC)c1 :: condition met
COc1cccc(-c2cc(C(=O)Nc3cc4ccc(OC5CCCNC5)c(OC)c4oc3=O)ccc2OC)c1 (stereo unspecified) :: condition met
COc1cccc(-c2cc(C(=O)Nc3cc4ccc(OC5CC(C)(C)C[C@@H](O)[C@H]5O)c(C)c4oc3=O)ccc2OC)c1 (stereo partly specified) :: condition not met
COc1cccc(-c2cc(C(=O)Nc3cc4ccc(OC5CNC[C@@H](O)[C@H]5O)c(OC)c4oc3=O)ccc2OC)c1 (stereo partly specified) :: condition not met
COc1cccc(-c2cc(C(=O)Nc3cc4ccc(OC5CCN(C)CC5)c(OC)c4oc3=O)ccc2OC)c1 :: condition met
COc1cccc(-c2cc(C(=O)Nc3cc4ccc(OC5CC(C)C[C@@H](O)[C@H]5O)c(OC)c4oc3=O)ccc2OC)c1 (stereo partly specified) :: condition not met

Dear colleague, could you confirm whether IC50 of COc1cccc(-c2cc(C(=O)Nc3cc4ccc(OP(=O)(OC)OC)c(C)c4oc3=O)ccc2OC)c1 falls below 3000 nM? Thanks. condition not met

Given CO[C@@H]1[C@@H](O)[C@@H](O)[C@H](Oc2ccc3cc(NC(=O)c4ccc(O)c(CC=C(C)C)c4)c(=O)oc3c2C)OC1(C)C , is recorded IC50 strictly lower than 3000 nM? condition met

Dear reviewer, please state whether COc1cccc(-c2cc(C(=O)Nc3cc4cc(OC)c(OC5C=CCN(C)C5)c(C)c4oc3=O)ccc2OC)c1 (stereo unspecified) has IC50 strictly beneath 3000 nM. condition met

IC50 strictly < 3000 nM for this compound? COc1cccc(-c2cc(C(=O)Nc3cc4cc(OC)c(OCC(O)CO)c(C)c4oc3=O)ccc2OC)c1 (stereo unspecified) condition not met

Identify whether the compound COc1cccc(-c2cc(C(=O)Nc3cc4cc(OC)c(O)c(C)c4oc3=O)ccc2OC)c1 records IC50 below 3000 nM. condition not met

Determine whether this compound shows IC50 lower than 3000 nM (ties excluded): COc1cccc(-c2cc(C(=O)Nc3cc4ccc(O)c(C)c4oc3=O)ccc2OC)c1 condition not met
